Values compiled from patent US10173991B2.

Please provide measured IC50 for the entries that follow.
Target or test system: Endothelial lipase (EL) (Homo sapiens (Human), UniProt Q9Y5X9)
Sequence (Q9Y5X9 21-500): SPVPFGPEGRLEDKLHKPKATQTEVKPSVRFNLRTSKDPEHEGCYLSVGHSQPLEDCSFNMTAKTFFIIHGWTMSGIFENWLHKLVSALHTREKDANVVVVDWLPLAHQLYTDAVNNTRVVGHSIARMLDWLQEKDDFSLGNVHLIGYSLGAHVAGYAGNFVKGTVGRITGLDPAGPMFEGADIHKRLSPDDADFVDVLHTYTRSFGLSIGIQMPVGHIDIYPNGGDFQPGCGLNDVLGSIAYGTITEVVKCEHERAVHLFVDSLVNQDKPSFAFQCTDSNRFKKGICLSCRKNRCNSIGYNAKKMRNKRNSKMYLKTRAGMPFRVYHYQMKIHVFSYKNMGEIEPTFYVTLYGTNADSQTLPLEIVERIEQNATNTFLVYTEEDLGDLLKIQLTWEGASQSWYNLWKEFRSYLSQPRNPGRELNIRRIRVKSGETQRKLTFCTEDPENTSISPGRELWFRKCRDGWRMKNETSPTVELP
Protocol notes: Endothelial lipase (EL) enzymatic assay with fluorescent substrate A10070 in DMPG vesicles
Assay type: biochemical
Answers are plain numbers, in nM.

Examples with answers:
CC(C)S(=O)(=O)C(C(=O)NCC(=O)NC1CC1)c1nc2cc(C(F)(F)F)c(-c3cccc(C(=O)N(C)C)c3)cc2s1 (stereo not shown) = 37
Cc1ncc(-c2cc3sc(C(C(=O)NCC(=O)NC4CC4)S(=O)(=O)C(C)C)nc3cc2F)cn1 (stereo not shown) = 11
O=C(CNC(=O)C(c1nc2cc(-c3ccc(NC(=O)OCc4ccccc4)nc3)c(F)cc2s1)S(=O)(=O)CCC(F)(F)F)NC1CC1 (stereo not shown) = 6
COCCS(=O)(=O)C(C(=O)NCC(=O)NC1CC1)c1nc2cc(F)c(-c3cccc(C(=O)N(C)C)c3)cc2s1 (stereo not shown) = 51
O=C(CNC(=O)C(c1nc2ccc(-c3ccc(C(=O)N4CCOCC4)cc3)cc2s1)S(=O)(=O)Cc1ccc(F)cc1)NC1CC1 (stereo not shown) = 15
COCCS(=O)(=O)C(C(=O)NCC(=O)NC1CC1)c1nc2cc(F)c(-c3ccc(-n4ccnc4)cc3)cc2s1 (stereo not shown) = 36

Now, please, on to the next compound.
# IC50 lookup, item COCCS(=O)(=O)C(C(=O)NCC(=O)NC1CC1)c1nc2ccc(-c3ccccc3)cc2s1 (stereo not shown)
7

* * *

Target or test system: Endothelial lipase (EL) (Homo sapiens (Human), UniProt Q9Y5X9)
Protocol notes: Endothelial lipase (EL) enzymatic assay with fluorescent substrate A10070 in DMPG vesicles
Format: biochemical
Measured property: pIC50
One number for each entry, as −log10 of the molar value.

CC(=O)Nc1cccc(-c2cc3nc(C(C(=O)NCC(=O)NC4CC4)S(C)(=O)=O)sc3cc2F)c1 (centres unmarked) = 7.92

Dear colleague, could you send me pIC50 for each of the items below? Thanks.
1. COCCNC(=O)c1ccc(-c2ccc3nc(C(C(=O)NCC(=O)NC4CC4)S(=O)(=O)c4ccc(F)cc4)sc3c2)cc1 (centres unmarked)
2. Cc1cc2nc(C(C(=O)NCC(=O)NC3CC3)S(=O)(=O)C(C)C)sc2cc1-c1ccc(C#N)nc1 (centres unmarked)
3. COCCS(=O)(=O)C(C(=O)NCC(=O)NC1CC1)c1nc2cc(F)c(-c3ccc(-c4nn[nH]n4)c(F)c3)cc2s1 (centres unmarked)
4. COCCS(=O)(=O)C(C(=O)NCC(=O)NC1CC1)c1nc2cc(F)c(-c3ccc(C(=O)NCCC#N)cc3)cc2s1 (centres unmarked)
5. COCCS(=O)(=O)C(C(=O)NCC(=O)NCC1CC1)c1nc2ccc(-c3ccc(F)nc3)cc2s1 (centres unmarked)

7.72
8.05
7.96
8.15
7.66

Dear colleague, could you send me pIC50 for each of the items below? Thanks.
1. COCCS(=O)(=O)C(C(=O)NCC(=O)NC1CC1)c1nc2cc(F)c(-c3ccc(-c4noc(=O)[nH]4)cc3)cc2s1 (centres unmarked)
2. CC(C)S(=O)(=O)C(C(=O)NCC(=O)NC1CC1)c1nc2cc(C(F)(F)F)c(-c3ccnn3C)cc2s1 (centres unmarked)
3. CC(=O)N(C)c1ccc(-c2cc3sc(C(C(=O)NCC(=O)NC4CC4)S(C)(=O)=O)nc3cc2F)cc1 (centres unmarked)
4. COCCS(=O)(=O)C(C(=O)NCC(=O)NC1CC1)c1nc2cc(C(F)(F)F)c(-c3ccc(C(=O)N4CCOCC4)cc3)cc2s1 (centres unmarked)
5. COCCS(=O)(=O)C(C(=O)NCC(=O)NC1CC1)c1nc2cc(-c3ccnc(C(F)(F)F)c3)ccc2s1 (centres unmarked)

1: 8.10; 2: 7.06; 3: 7.96; 4: 7.70; 5: 8.30
